Below, each of the compounds is paired with its reported GI50 value.
system: BT-549; experiment: NCI tumour cell line growth inhibition, 48 h
Calls of active or inactive are those of the source. Cut-off read from the data, not from the text of the source: active = GI50 up to about 1.1 µM and inactive = higher.

Below are worked cases with known answers.
compound="NC(Cc1ccc(OCc2ccccc2)cc1)C(=O)NC(Cc1ccccc1)C(=O)Oc1c(Cl)c(Cl)c(Cl)c(Cl)c1Cl (stereo not given)" parameter=GI50 result="17.5 µM (inactive)"
compound=O=C(Nc1ccc(Cl)cc1)c1cc(S(=O)(=O)N2CCNNC2=O)c(S)cc1Cl parameter=GI50 result="35.7 µM (inactive)"
compound=NC(=O)c1nnc2c(F)cccc2c1N parameter=GI50 result="58.9 µM (inactive)"
compound=CN(C)CCCNc1cc(O)c2c(c1O)C(=O)c1ccccc1C2=O parameter=GI50 result="17 µM (inactive)"

From here, focus on the item given below.
For the compound O=C(c1cccs1)N(C(=S)OCCOc1ccccc1)c1ccccc1 , give its measured GI50 value.
20.8 µM (inactive)

###

test system: HCT-15
Below: a set of entries, each annotated with reported GI50.
Numbers only; they are read as µM.

Here are 2 molecules together with their reported answers.
molecule="[O-][S+](C(c1ccccc1)=P(c1ccccc1)(c1ccccc1)c1ccccc1)c1ccc(Cl)cc1 (stereo not given)" tested_target=HCT-15 parameter=GI50 reading_unit=µM numeric_result=34.9
molecule="Fc1cccc(F)c1C1SCc2nc3cc4ccccc4cc3n21 (stereo not given)" tested_target=HCT-15 parameter=GI50 reading_unit=µM numeric_result=16

Look up and report measured GI50 (HCT-15) for the following molecule: Cc1cc(O)c2cc3c(O)c(O)ccc3cc2c1
1.2

###

Entries annotated with measured GI50
system: LOX IMVI; test: NCI tumour cell line growth inhibition, 48 h
Activity calls are given as the source filed them. Rule as the data show it: active = GI50 up to about 1.1 µM and inactive = higher.

compound=CSc1ccc(/C=C/C(=O)c2nc3ccccc3[nH]2)cc1 tested_target="LOX IMVI" result="14.5 µM (inactive)"

Answer with the recorded GI50 for the compound listed here: COc1cc2c(cc1OC)CCN=C2
> 100 µM (inactive)

Find the measured GI50 of CCOC(=O)c1[nH]c2cccc3c2c1CC(Br)C3=O (stereo unspecified) and report it.
15.7 µM (inactive)

Return GI50 (reported value) for this compound: O=c1[nH]c(=O)n(C2CC(O)C(O)C(CO)O2)cc1F (stereo unspecified)
> 100 µM (inactive)

Determine its reported GI50: COC(=O)C1C2CC3C(OC(=O)C31)C2I (stereo unspecified)
> 100 µM (inactive)

Please report the measured GI50 for CC1(c2ccccc2Cl)C(C#N)C(=O)NC(=O)C1C#N (stereo unspecified)
40.1 µM (inactive)

Look up and report measured GI50 for this entry: Cc1nn(C2OC(CO)C(O)C(F)C2O)c(=O)[nH]c1=O (stereo unspecified)
> 100 µM (inactive)

For the compound [O-][S@@+]1c2ccc3ccccc3c2N[C@@H]2[C@H]1[C@H]1C=C[C@@H]2C1 , give its measured GI50 value.
31.6 µM (inactive)

Fill in GI50 for record Clc1ccc(-c2nnc(C34CC5CC(CC(C5)C3)C4)o2)cc1
> 100 µM (inactive)

Input CC1OC(OC2C(O)COC(OC3C(C)OC(OC4C(OC(=O)[C@]56CCC(C)(C)C[C@@H]5C5=CCC7[C@@]8(C)C[C@H](O)[C@H](OC9OC(CO)C(O)C(OC%10OC(CO)C(O)C(O)C%10O)C9O)[C@@](C)(CO)[C@@H]8CC[C@@]7(C)[C@]5(C)CC6)OCC(O)C4O)C(O)C3O)C2O)C(O)C(O)C1O (stereo partly specified) , output reported GI50.
18 µM (inactive)

Specify GI50 for O=C(/C=C/c1ccc(Cl)c(Cl)c1)c1ccccc1Cl and stop.
13.2 µM (inactive)

# return recorded GI50 for input CCCCCCCCCCCCCCCCCC(=O)Nc1ccn(C2OC(CO)C(O)C2O)c(=O)n1 (stereo unspecified)
9.89 µM (inactive)

Supply measured GI50 of CC1(C)C=N[N+]2(C)C3C=CC(CC3)C12 (stereo unspecified) in your reply.
> 100 µM (inactive)

Please look at this compound and report its GI50: COc1ccc(NC(=O)CC(=O)n2nc(-c3ccccc3)c(/N=N/c3ccccc3C)c2-c2ccccc2)cc1
41 µM (inactive)

Complete the entry with GI50 for CC1(C)CC2(C)OC(=N)C1(C#N)C2(C#N)C#N (stereo unspecified)
1.68 µM (inactive)

Give recorded GI50. Cc1nc2ccc(NC(=S)Nc3ccccc3)cc2c(=O)n1-c1ccccc1
> 100 µM (inactive)

Please report the measured GI50 for Cc1cc(-c2nc3cccc(O)c3s2)ccc1N
26.4 µM (inactive)

Recall and state the measured GI50 for O=[N+]([O-])/C(C(Cl)=C(Cl)Cl)=C(\N1CCCCC1)n1nnc2ccccc21 .
16.7 µM (inactive)

Name the recorded GI50 of the compound listed here: O=C(c1cccs1)N(C(=S)OCCOc1ccccc1)c1ccccc1
17.1 µM (inactive)

Please give measured GI50 of the following entry: CCCCCCNC(=O)c1cc(C#Cc2cc(OC)ccc2OC)ccc1OC
> 100 µM (inactive)

Entry CN(/N=C/c1ccc(Cl)c(Cl)c1)C1=NCCCCN1 needs its GI50 filled in; supply it.
13.2 µM (inactive)

###

system: UO-31; assay: NCI tumour cell line growth inhibition, 48 h
Activity calls are given as the source filed them. Rule as the data show it: active = GI50 up to about 1.1 µM and inactive = higher.
Parameter: GI50

compound=CC(C)/C(Cl)=N\OC(=O)Nc1ccc(F)cc1F result="7.52 µM (inactive)"
compound="NC(Cc1ccc(OCc2ccccc2)cc1)C(=O)NC(Cc1ccccc1)C(=O)Oc1c(Cl)c(Cl)c(Cl)c(Cl)c1Cl (stereo not drawn)" result="16.4 µM (inactive)"
compound=COc1ccc(NC(=O)CSc2nnc(-c3ccc(/N=C\c4ccc(Cl)cc4)cc3)o2)cc1 result="> 54.7 µM (inactive)"
compound=Cn1ccnc1CCc1ccc(Cl)c(Cl)c1 result="50.5 µM (inactive)"
compound="C[C@@H](c1ccccc1)C(CC#N)[C@H]1CCC[C@]1(O)C#Cc1ccc2c(c1)OCO2 (stereo partly drawn)" result="14.4 µM (inactive)"
compound="C[N+](C)(C)CC1Cc2ccccc2C1=O (stereo not drawn)" result="> 10 µM (inactive)"
compound=O=c1[nH]nc(-c2ccccc2)c2[nH]c3c(c12)CCCc1ccccc1-3 result="12.8 µM (inactive)"
compound=N#CC1=C(O)NC(O)=C(C#N)C1c1ccc(C2C(C#N)=C(O)NC(O)=C2C#N)cc1 result="> 100 µM (inactive)"

Recall the reported GI50 of C[N+](C)(C)CCN(Cc1cccs1)c1ccccn1 on UO-31 and write it down.
> 100 µM (inactive)

Give measured GI50 for Cc1ccc(S(=O)(=O)N(/N=C/C=C/c2ccccc2)c2nnc(-c3ccccc3)c(-c3ccccc3)n2)cc1 (UO-31).
5.86 µM (inactive)

###

GI50 by entry:
test system: NCI-H522; assay: NCI tumour cell line growth inhibition, 48 h
Active and inactive are the calls of the source. Cut-off read from the data, not from the text of the source: active = GI50 up to about 1.1 µM and inactive = higher.

The examples below pair each entry with its known result.
compound=C/C(=N\Nc1nc2ccccc2[nH]1)c1cnccn1 result="0.169 µM (active)"
compound=O=C(COC(=O)c1cccc2c(=O)c3ccccc3[nH]c12)Nc1ccc(S(=O)(=O)Nc2ncccn2)cc1 result="24.4 µM (inactive)"
compound="CCCCCCCCC/C=C1/CC(CO)(COC(=O)C2CCCCC2)OC1=O (stereo unspecified)" result="63.1 µM (inactive)"

Look up and state reported GI50 for CN(C)/C(=N\C#N)NCc1ccccc1
> 100 µM (inactive)

Quote GI50 reported for OCCNC1c2cc(Cl)ccc2-c2c(Cl)cc(Cl)cc21 (stereo unspecified) please.
27.8 µM (inactive)

Identify GI50 associated with the compound CC(=O)C12C[C@](C#N)(N3CCCCCC3)C1C=Cc1ccccc12 (stereo partly specified)
> 100 µM (inactive)

###

test system: NCI-H23; experiment: NCI tumour cell line growth inhibition, 48 h
The source made the active and inactive calls. Cut-off read from the data, not from the text of the source: active = GI50 up to about 1.1 µM and inactive = higher.
Give one outcome, nothing more. List: YES for active, NO for inactive

molecule="COC(=O)/C(=N\\NC(=O)C[N+](C)(C)C)C(C(=O)OC)C(=O)C(=O)Nc1ccccc1C(N)=O (centres undefined)" assigned_label=NO

Recorded call for CC1=C(C)SC(=C2Sc3c(n(C)c(=O)[nH]c3=O)S2)S1 ?
NO

How did this test come out for [O-][n+]1c2c([n+]([O-])c3ccccc31)-c1cccc3cccc-2c13 ?
NO

Hi team, can someone confirm the assay call for O=c1[nH]c2nccn2c2c1SCCN2 ?
NO

Hi, do you know how CC1(C)OCC(COC(=O)NCn2cc(-c3ccccc3)nn2)O1 (centres undefined) came out in this test?
NO

Can you look up the reported call for C[C@]12CC[C@H]3[C@@H](CCC4=CC(=O)CC[C@@]43C)[C@@H]1CC[C@@H]2C(=O)Nc1ccc([N+](=O)[O-])c(C(F)(F)F)c1 for me?
NO

Field: outcome | Entry: CNc1ccc([S+]([O-])Nc2ccccc2)cc1 (centres undefined)
NO

I would be grateful if you could indicate the recorded call for CC/C=N\N1C(N)=C(C#N)C(C#N)(C#N)C1CC (centres undefined) .
NO

Hi, sorry to bother you, what did the test record for O=c1c2c(c1=O)C1(SCCCS1)c1cc(Cl)ccc1O2 ?
NO

Write down the call the test reported for this molecule. Item: CN(C)C(=S)N1C(=S)N(c2ccccc2)C(=N/c2ccccc2)/C1=N\c1ccccc1
NO

Assay outcome for O=C(O)CNc1cc(-c2ccccc2)nc(NCC(=O)O)n1 : what was it?
NO

For this molecule, state the assay outcome: COc1ccc(/C=C/C(=O)CCN2CCN(CCC(=O)/C=C/c3ccc(OC)cc3)CC2)cc1
NO

In this assay, the call recorded for Cn1c2ccccc2c(=NNc2ccccc2C(=O)O)c2ccccc21 was what?
NO

Hello, I am checking results. What call was entered for O=C1NC(N2CCOCC2)=N/C1=C\c1ccco1 ?
NO

Which result was noted for this molecule in the test: CON(C)C(=O)[C@H]1C[C@@]1(C)CO
NO

Which outcome did this test record for the molecule COc1ccc(NC(=S)c2ccc(CN3CCCCC3)s2)cc1 ?
NO

For this molecule, state the assay outcome: COc1cccc2c1C(=O)c1c(O)c3c(c(O)c1C2=O)C[C@@](O)(C(C)=O)C[C@@H]3OC1CC(N(C)C)C(O)C(C)O1 (some centres undefined)
YES

What call does the record list for Cc1ccsc1/C=N/Nc1nc2ccccc2s1 ?
NO

Field: outcome | Entry: COc1cccc(C2c3cc4c(cc3OC(O)C2C)OCO4)c1OC (centres undefined)
NO

For Cc1cc(C)c(C)c(-n2[nH]c(=O)n(C)c2=O)c1C , which call appears in the assay record?
NO
